Hello, the source for this data is patent US20250074873A1, in case you need it.

tested-on: 5-HT2C receptor (Homo sapiens)
Construct: host or cells: HEK293
Sequence (P28335 33-458): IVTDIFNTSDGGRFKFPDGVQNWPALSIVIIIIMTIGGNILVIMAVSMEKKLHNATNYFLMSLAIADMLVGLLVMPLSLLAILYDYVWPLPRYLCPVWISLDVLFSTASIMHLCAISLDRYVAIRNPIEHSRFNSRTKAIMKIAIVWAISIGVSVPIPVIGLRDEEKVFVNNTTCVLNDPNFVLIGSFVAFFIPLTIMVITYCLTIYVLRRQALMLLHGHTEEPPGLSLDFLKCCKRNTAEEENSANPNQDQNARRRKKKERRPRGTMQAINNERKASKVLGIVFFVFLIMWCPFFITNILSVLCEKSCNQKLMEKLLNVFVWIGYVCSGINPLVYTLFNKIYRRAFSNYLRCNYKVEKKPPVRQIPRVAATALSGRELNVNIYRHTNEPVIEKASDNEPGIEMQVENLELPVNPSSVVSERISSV
assay-procedure: FLIPR Ca2+ flux functional assay, 5-HT2C agonist activity
Format: cell-based
experimental-context: agonist activity, Ca2+ flux, stably transfected HEK293 cells; read-out: 5-HT2c EC50
observation-type: EC50 (µM)

- COc1ccc2[nH]cc(CCN(C)C3COC3)c2c1: 6.28
